System Under Test: Angiopoietin-1 receptor (Homo sapiens) (UniProt Q02763)
Sequence (Q02763 whole entry): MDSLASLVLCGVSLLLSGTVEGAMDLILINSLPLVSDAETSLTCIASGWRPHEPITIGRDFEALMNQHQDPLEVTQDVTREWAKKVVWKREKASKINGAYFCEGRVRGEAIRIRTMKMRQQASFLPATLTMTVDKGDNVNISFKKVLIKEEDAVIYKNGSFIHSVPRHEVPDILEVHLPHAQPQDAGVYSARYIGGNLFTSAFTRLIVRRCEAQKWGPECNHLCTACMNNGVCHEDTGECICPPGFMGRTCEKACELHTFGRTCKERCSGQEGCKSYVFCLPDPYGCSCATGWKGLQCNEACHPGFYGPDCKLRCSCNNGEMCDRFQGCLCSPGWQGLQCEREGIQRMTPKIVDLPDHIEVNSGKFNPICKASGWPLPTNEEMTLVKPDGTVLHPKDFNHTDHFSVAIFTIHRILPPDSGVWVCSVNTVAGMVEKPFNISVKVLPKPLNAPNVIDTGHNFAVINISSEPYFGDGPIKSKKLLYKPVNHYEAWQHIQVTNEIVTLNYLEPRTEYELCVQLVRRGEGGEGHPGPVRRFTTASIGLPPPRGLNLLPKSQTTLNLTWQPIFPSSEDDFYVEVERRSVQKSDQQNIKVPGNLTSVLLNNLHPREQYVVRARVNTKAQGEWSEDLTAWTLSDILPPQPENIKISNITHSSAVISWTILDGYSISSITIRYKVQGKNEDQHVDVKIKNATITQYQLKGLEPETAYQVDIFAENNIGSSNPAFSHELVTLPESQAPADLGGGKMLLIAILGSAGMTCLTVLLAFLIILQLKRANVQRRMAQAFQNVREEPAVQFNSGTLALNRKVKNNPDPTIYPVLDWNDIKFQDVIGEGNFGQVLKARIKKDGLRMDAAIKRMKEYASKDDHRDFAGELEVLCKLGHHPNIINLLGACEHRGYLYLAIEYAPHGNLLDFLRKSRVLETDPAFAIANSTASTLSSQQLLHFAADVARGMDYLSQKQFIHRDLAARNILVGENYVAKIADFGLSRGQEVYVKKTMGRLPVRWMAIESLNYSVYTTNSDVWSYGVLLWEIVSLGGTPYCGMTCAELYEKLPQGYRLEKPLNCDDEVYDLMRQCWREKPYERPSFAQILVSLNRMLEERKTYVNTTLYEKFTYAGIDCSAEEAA
Setup Conditions: at 0.1 µM
Description: GSK_PKIS: TIE2 mean inhibition at 0.1 uM [Nanosyn]
Would you kindly list inhibition for each of these compounds?
Number first, unit second.

compound=C[C@@H](Oc1cc(-n2cnc3ccc(OCC4CCN(C)CC4)cc32)sc1C(N)=O)c1ccccc1Cl measured_value=4.83%

Please supply inhibition for each of the following items, keeping them in order.
1. NC(=O)c1cc(-c2ccncc2)cc(-c2ccccc2)c1N
2. NC(=O)Cc1ccccc1Oc1nccc(-c2c(-c3ccc(F)cc3)ncn2C2CCNCC2)n1
3. Fc1ccc(-c2ncn(C3CCNCC3)c2-c2ccnc(Oc3ccc(Oc4ccccc4)cc3)n2)cc1
4. NS(=O)(=O)c1ccc(Nc2cc(-c3ccc(O)c(F)c3)n[nH]2)cc1
5. Cc1ccc(C(=O)NC2CCC2)cc1-c1ccc(C(=O)NCC2CC2)cc1
6. O=C(Nc1n[nH]c2nc(-c3ccco3)ccc12)C1CC1
7. C/C(Nc1ccc(S(N)(=O)=O)cc1)=C1/C(=O)Nc2ccccc21

result:
1. 3.02%
2. 3.62%
3. 3.79%
4. 2.97%
5. 2.59%
6. 5.28%
7. 0.44%

* * *

Would you kindly list inhibition for each of these molecules?
System Under Test: Tyrosine-protein kinase Blk (Homo sapiens);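 note: mean percent inhibition of BLK kinase activity, from GSK PKIS kinase inhibitor set profiling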
Setup Conditions: at 1 µM
One number for each entry, in %.

Please supply inhibition for each of the following items, keeping them in order.
1. COC(=O)Nc1nc2ccc(Sc3ccc(NC(=O)Nc4cc(C(F)(F)F)ccc4F)cc3)cc2[nH]1
2. CN(C)c1ccc2c(c1)/C(=C/Nc1ccc(S(N)(=O)=O)cc1)C(=O)N2
3. O=C(Nc1n[nH]c2cc(-c3cc(F)ccc3F)ccc12)C1CC1
4. Fc1ccc(-c2ncn(CCCN3CCOCC3)c2-c2ccncc2)cc1
5. Cc1ccc(C(=O)NC2CCC2)cc1-c1ccc(C(=O)NCC2CC2)cc1
6. O=C(Nc1n[nH]c2nc(-c3ccc(O)cc3)c(Br)cc12)C1CC1
7. NC(=O)c1cc(-c2ccc(F)cc2)cc(-c2ccncc2)c1N

result:
[2.36, 33.2, 4.54, 1.04, 1.49, 15.4, 4.55]

* * *

System Under Test: Serine/threonine-protein kinase Sgk1 (Homo sapiens)
Setup Conditions: at 0.1 µM
Description: GSK_PKIS: SGK1 mean inhibition at 0.1 uM [Nanosyn]
Recorded Endpoint: inhibition (%)
Give bare numbers, in %.

compound=COc1ccc(C2=C(N3CCc4ccccc43)C(=O)NC2=O)cc1 endpoint_unit=% measured_value=5.57

Please supply inhibition for each of the following items, keeping them in order.
1. Fc1ccc(-c2ncn(CCCN3CCOCC3)c2-c2ccncc2)cc1
2. O=C(Nc1n[nH]c2nc(-c3ccco3)ccc12)C1CC1
3. NC(=O)Cc1ccccc1Oc1nccc(-c2c(-c3ccc(F)cc3)ncn2C2CCNCC2)n1

result:
1: -0.45; 2: 2.03; 3: -0.43

Please supply inhibition for each of the following items, keeping them in order.
1. COc1cccc(/C=N/Nc2ncnc3c2cnn3-c2cccc(OC)c2)c1
2. O=C1Nc2ccccc2/C1=C/Nc1ccc(-n2cncn2)cc1
3. Cc1ccc(NC(=O)c2ccoc2)cc1-c1ccc(C(=O)NCC2CC2)cc1

result:
1.88
5.81
0.63

Please supply inhibition for each of the following items, keeping them in order.
1. COc1cc(C)c(N(C)C(=O)CN(C)C)cc1Nc1nc(Nc2cccc(F)c2C(N)=O)c2cc[nH]c2n1
2. CCC(=O)Nc1ccc(C)c(-c2ccc(C(=O)NCC3CC3)cc2)c1
3. Nc1nccc(-c2c(-c3ccc(F)cc3)ncn2C2CCC(O)CC2)n1 (stereo not drawn)
4. O=C(Nc1n[nH]c2cc(-c3ccccc3)ccc12)C1CC1
5. CCc1nccc2c1nc(-c1nonc1N)n2CC
6. NS(=O)(=O)c1ccc(N/N=C2\C(=O)Nc3ccc(C(=O)NCCCn4ccnc4)cc32)cc1
7. C#Cc1cccc(Nc2ncnc3ccc(OCCCCNCCS(C)(=O)=O)cc23)c1
8. CS(=O)(=O)CCNCc1cc(-c2cc3c(Nc4ccc(OCc5cccc(F)c5)c(Cl)c4)ncnc3s2)cs1

result:
1: 1.3; 2: 1.88; 3: -2.26; 4: 2.86; 5: 0.21; 6: 5.02; 7: 3.74; 8: 2.39

Please supply inhibition for each of the following items, keeping them in order.
1. NS(=O)(=O)c1ccc(Nc2cc(-c3ccc(O)c(F)c3)n[nH]2)cc1
2. CN(C)CCOc1ccc(-c2cc(-c3ccc4c(c3)CCC4=NO)c(-c3ccncc3)o2)cc1
3. NCc1ccc(-n2c(-c3nonc3N)nc3cnccc32)cc1
4. NC(=O)c1cc(-c2ccncc2)cc(-c2ccccc2)c1N

result:
1. -0.99
2. 1.28
3. 5.32
4. 4.37
